Biological target: UniProt:Q8NER1
Sequence (Q8NER1 whole entry): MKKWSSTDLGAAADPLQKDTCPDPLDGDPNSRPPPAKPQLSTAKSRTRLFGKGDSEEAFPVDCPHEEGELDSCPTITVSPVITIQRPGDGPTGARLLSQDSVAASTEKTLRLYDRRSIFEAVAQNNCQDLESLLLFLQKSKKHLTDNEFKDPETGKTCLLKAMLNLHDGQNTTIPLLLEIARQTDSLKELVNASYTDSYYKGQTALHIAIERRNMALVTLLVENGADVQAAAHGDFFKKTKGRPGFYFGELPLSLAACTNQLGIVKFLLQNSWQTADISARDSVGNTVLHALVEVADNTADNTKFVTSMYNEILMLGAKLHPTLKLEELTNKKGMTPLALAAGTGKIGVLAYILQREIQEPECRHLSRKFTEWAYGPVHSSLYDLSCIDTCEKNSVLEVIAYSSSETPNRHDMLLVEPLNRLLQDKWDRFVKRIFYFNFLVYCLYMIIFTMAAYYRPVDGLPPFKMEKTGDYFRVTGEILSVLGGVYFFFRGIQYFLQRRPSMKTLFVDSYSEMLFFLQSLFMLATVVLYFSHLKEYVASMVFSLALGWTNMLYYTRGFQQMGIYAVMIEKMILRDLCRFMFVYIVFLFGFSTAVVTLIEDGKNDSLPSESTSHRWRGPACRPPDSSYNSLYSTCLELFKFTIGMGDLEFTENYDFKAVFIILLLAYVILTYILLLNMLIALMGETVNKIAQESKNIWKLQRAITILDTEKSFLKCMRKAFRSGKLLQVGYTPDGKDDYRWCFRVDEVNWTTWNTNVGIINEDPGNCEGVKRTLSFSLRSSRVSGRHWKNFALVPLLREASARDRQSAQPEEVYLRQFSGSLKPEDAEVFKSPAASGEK
Test: Antagonist activity at human recombinant TRPV1 receptor assessed as inhibition of capsaicin-induced calcium uptake by FLIPR assay
measure: log10 IC50 (log10 of the value in nM)
In plain terms, each number is the log10 of measured IC50 in nM.

Prompt: Value lookup for log10 IC50; key = CC(C)(C)Oc1cccc(C(=O)Nc2ccc3sc(CO)nc3c2)c1
Completion: 3.03

Prompt: Value lookup for log10 IC50; key = O=C(Nc1ccc2sc(CO)nc2c1)c1ccc(Br)cc1
Completion: 1.42

Prompt: Value lookup for log10 IC50; key = Cn1nc(C(F)(F)F)cc1C(=O)Nc1ccc2sc(CO)nc2c1
Completion: 2.20

Prompt: Value lookup for log10 IC50; key = C#Cc1ccc(C(=O)Nc2ccc3sc(CO)nc3c2)cc1
Completion: 2.24

Prompt: Value lookup for log10 IC50; key = Cc1cc(Cl)ccc1C(=O)Nc1ccc2sc(CO)nc2c1
Completion: 1.93

Prompt: Value lookup for log10 IC50; key = CC(C)(C)Oc1ccc(C(=O)Nc2ccc3sc(CO)nc3c2)cc1
Completion: 0.99

Prompt: Value lookup for log10 IC50; key = Cc1cc(Br)ccc1C(=O)Nc1ccc2sc(CO)nc2c1
Completion: 1.72

Prompt: Value lookup for log10 IC50; key = Cc1nc2cc(NC(=O)c3ccc(C(C)(C)C)cc3)ccc2s1
Completion: 1.43

Prompt: Value lookup for log10 IC50; key = O=C(Nc1ccc2sc(CO)nc2c1)c1ccc(OCC(F)(F)F)nc1
Completion: 1.61

###

Please respond with reported solubility for every item in the list.
Test: Aqueous solubility of the compound in sodium phosphate buffer at pH 7.4
Format: physicochemical
Number in µM, nothing else.

Prompt: Value lookup for solubility; key = O=C(Nc1ccc2sc(CO)nc2c1)c1ccc(OCC(F)(F)F)nc1
Completion: 9

Prompt: Value lookup for solubility; key = Cc1cc(OC(C)C)ccc1C(=O)Nc1ccc2sc(CO)nc2c1
Completion: 9

Prompt: Value lookup for solubility; key = CCN(CC)Cc1ccc(C(=O)Nc2ccc3sc(CO)nc3c2)cc1
Completion: 5160

###

Assay: Intrinsic clearance in human liver microsomes assessed per mg of protein
Type: ADME, Microsome
Conditions: read-out: CLH
Please respond with reported microsomal CLint for every item in the list.
Number in µL/min/mg, nothing else.

Prompt: Value lookup for microsomal CLint; key = O=C(Nc1ccc2sc(CO)nc2c1)c1ccc(CN2CCOCC2)cc1
Completion: 13

Prompt: Value lookup for microsomal CLint; key = CCOCc1ccc(C(=O)Nc2ccc3sc(CO)nc3c2)cc1
Completion: 24

Prompt: Value lookup for microsomal CLint; key = CC(C)(C)Oc1ccc(C(=O)Nc2ccc3sc(CO)nc3c2)cc1
Completion: 19

Prompt: Value lookup for microsomal CLint; key = CC(C)(C)c1ccc(C(=O)Nc2ccc3sc(CO)nc3c2)cc1
Completion: 57

Prompt: Value lookup for microsomal CLint; key = CC(C)Oc1ccc(C(=O)Nc2ccc3sc(CO)nc3c2)cc1
Completion: 12

Prompt: Value lookup for microsomal CLint; key = O=C(Nc1ccc2sc(CO)nc2c1)c1ccc(C(F)(F)F)nc1
Completion: 13

Prompt: Value lookup for microsomal CLint; key = Cn1nc(C(F)(F)F)cc1C(=O)Nc1ccc2sc(CO)nc2c1
Completion: 9

Prompt: Value lookup for microsomal CLint; key = O=C(Nc1ccc2sc(CO)nc2c1)c1ccc(Cl)cc1
Completion: 14
